- System: ACHN renal
- experiment: NCI-60 one-dose screen, 48 h
- protocol_conditions: 10 µM unless noted
The panel holds about 83,000 compounds, 20% with a hit somewhere; the sample as a whole holds those more often. The source made the active and inactive calls. Rule for the calls: active = growth percent below 10; inactive = the rest.
Outcome field: choose from class 1 = active, class 0 = inactive

What was the test verdict on O=C(c1nn(-c2ccccc2)c2c1CC(NCc1ccc(F)cc1)CC2)N1CCCCC1 (centres undefined) ?
class 0

Assay outcome for `C#Cc1c2c(c(OC)c3c1OCO3)[C@H]([C@H]1OC(=O)c3c1ccc(OC)c3OC)N(C)CC2` : what was it?
class 0

Could you please tell me the result logged for `COc1cc2cc(NCc3cccc(Cl)c3)nc(C)c2cc1OC` in this assay?
class 0

Which result was noted for this compound in the test: `O=C1/C(=C/c2ccccc2O)CC/C1=C\c1ccccc1O`
class 0

// return assay outcome for CC(C)=CCCC(C)c1ccc(C)c2c1OCN(CCCCCO)C2 (centres undefined)
class 0

What did this assay record as the result for `N#Cc1c(-c2ccccc2)[nH]c2ncc(-c3ccccc3)n2c1=O` ?
class 0

Recorded test call requested for CC(C)(C)[Si](C)(C)OC1[C@@H](CNC(=O)NC(=O)NC(N)=O)O[C@@H](n2cnc3c(NC(=O)Nc4ccccc4)ncnc32)[C@H]1O[Si](C)(C)C(C)(C)C (some centres undefined)
class 0

Could you please tell me the result logged for `CCOC(=O)c1cc(C(=O)c2cc(OC)c(OC)c(OC)c2)n2ncccc12` in this assay?
class 0

Lab log entry: `COC1=CC(c2ccc[nH]2)=N/C1=C\c1[nH]c(C)c(C)c1CCC(=O)OCc1ccccc1` — outcome as called in the assay?
class 1

----------
- Test system: UO-31 renal
- experiment: NCI-60 one-dose screen, 48 h
- protocol_conditions: 10 µM unless noted
Compounds without any hit were thinned out: in the full panel of roughly 83,000, 20% have a hit. The source made the active and inactive calls. Rule for the calls: active = growth percent below 10; inactive = the rest.
A correct response names exactly one class from 1.0 (active), 0.0 (inactive)

Observe how each entry below is paired with its result.
>  <smiles_input>
O=C(/C=C/c1cccc(Cl)c1)c1cccc(OCCCOc2cccc(C(=O)/C=C/c3cccc(Cl)c3)c2)c1

>  <assigned_label>
0.0

$$$$
>  <smiles_input>
Clc1ccc(/C=N\N=C\c2ccc(Cl)c(Cl)c2)cc1Cl

>  <assigned_label>
0.0

$$$$
>  <smiles_input>
Nc1cc(C(=O)NC[C@H]2CN(c3ccc(N4CCC(C(=O)O)CC4)cc3)C(=O)O2)ccc1Cl

>  <assigned_label>
0.0

$$$$
>  <smiles_input>
CCCCCOC(=O)c1c(C)[nH]c(/C=C2\N=C(c3ccc[nH]3)C=C2OC)c1C

>  <assigned_label>
1.0

$$$$

Continue with the compound presented below.
Please state the recorded outcome for this compound: `CC(=O)c1c(C)nc(SCC(=O)Nc2cccc(O)c2)n1-c1ccc(Cl)cc1`
0.0

----------
- Tested on: NCI-H322M lung
- experiment: NCI-60 one-dose screen, 48 h (100 = growth as untreated, 0 = no growth, -100 = all killed)
- protocol_conditions: 10 µM unless noted
- Protocol: Growth inhibition of the NCI-H322M human Non-Small Cell Lung tumor cell line is measured as a screen for anti-cancer activity. Cells are grown in 96 well plates and exposed to the test compound for 48 hours. Compounds are tested at a single concentration, which is 10^-5 M for most compounds. The reported endpoint is percent growth (GI% or GIPRCNT), where numbers from 0 - 100% represent growth inhibition, and numbers from -100% - 0 represent cell death. […]
Compounds without any hit were thinned out: in the full panel of roughly 83,000, 20% have a hit.
Each entry below carries its reported growth.
Lab book: enter the figure in %, no units written.

>  <compound>
COC(=O)c1nc(-c2ccccc2)oc1S(=O)(=O)Cc1ccccc1

>  <quantity_name>
growth

>  <unit_text>
%

>  <measured>
98.1

$$$$
>  <compound>
CCN(CC)Cc1cc(C=C2C(=O)NC(=S)NC2=O)cc(OC)c1O

>  <quantity_name>
growth

>  <unit_text>
%

>  <measured>
103

$$$$
>  <compound>
Cc1[nH]c(C(=O)Nc2ccc(C(=O)N3CCN(c4cc5c(cc4F)c(=O)c(C(=O)O)cn5C4CC4)CC3)cc2OC(C)C)c(Cl)c1Cl

>  <quantity_name>
growth

>  <unit_text>
%

>  <measured>
90.3

$$$$
>  <compound>
CCC(C(=O)[C@@H](C)[C@@H](O)[C@H](C)[C@@H]1O[C@@H]([C@@H](CC)C(=O)ONC(=O)c2ccccc2)CC[C@@H]1C)[C@H]1O[C@]2(C=CC(=O)[C@]3(CC[C@@](C)([C@H]4CC[C@](O)(CC)[C@H](C)O4)O3)O2)[C@H](C)C[C@@H]1C (some centres not stated)

>  <quantity_name>
growth

>  <unit_text>
%

>  <measured>
37.4

$$$$
>  <compound>
NC(Cc1ccc(O)c([N+](=O)[O-])c1)C(=O)O (configuration not stated)

>  <quantity_name>
growth

>  <unit_text>
%

>  <measured>
107

$$$$
>  <compound>
N#Cc1nc(-c2ccc(F)cc2)oc1S(=O)(=O)N1CCOCC1

>  <quantity_name>
growth

>  <unit_text>
%

>  <measured>
102

$$$$
>  <compound>
COc1cc(C2c3cc(OC(C)=O)c(OC)cc3CC3C(=O)OCC32)ccc1OC(C)=O (configuration not stated)

>  <quantity_name>
growth

>  <unit_text>
%

>  <measured>
115

$$$$
>  <compound>
CN(c1cc2ncc(=O)[nH]c2cc1NC(N)=NCc1ccc(Cl)cc1)C1CCCCC1

>  <quantity_name>
growth

>  <unit_text>
%

>  <measured>
84.5

$$$$
>  <compound>
O=C(Nc1nc2ccccc2s1)c1ccc(F)cc1

>  <quantity_name>
growth

>  <unit_text>
%

>  <measured>
92.5

$$$$
>  <compound>
CN(C)CCNC(=O)c1ccc(-c2nc3ccc4[nH]ncc4c3c3c2C2CCC3C2)cc1 (configuration not stated)

>  <quantity_name>
growth

>  <unit_text>
%

>  <measured>
58.8

$$$$

Report measured growth; entry is `COC(=O)c1c2c(c(C)[n+]([O-])c1C)C(=O)C(NCc1cccc(OC)c1)=CC2=O`
22.6

Dear colleague, please send me the reported growth for `Clc1cccc(Nc2ncnc3ccc(-c4cnc5[nH]ccc5c4)cc23)c1` when you can.
18.7

Consider the compound `CN1CCc2nc3sc(C(N)=O)c(N)c3c(-c3cccs3)c2C1` and give its recorded growth.
40.7

Tell me growth reported for C#CCNC(=O)[C@H](CC)[C@H]1CC[C@H](C)[C@H]([C@@H](C)[C@H](O)[C@H](C)C(=O)[C@H](CC)C2O[C@]3(C=CC(=O)[C@]4(CC[C@@](C)([C@H]5CC[C@](O)(CC)[C@H](C)O5)O4)O3)[C@H](C)C[C@@H]2C)O1 (some centres not stated)
53.8

Return growth for the following compound: `O=C(Cn1cc(CSc2nc3ccccc3o2)nn1)Nc1ccc(F)cc1F`
104

Tell us which growth value is on record for `O=C(Nc1cccc(Cl)c1)Nc1cccc(Cn2c(=O)[nH]c3ccc(Oc4ncccn4)cc3c2=O)c1`
66.1

Output measured growth for this item: `COC12C=C/C(=C(/C(=O)OCc3ccncc3)C(=O)CCCCCCCCC3(OC)C=C/C(=C(/C(=O)OCc4ccncc4)C(=O)CCCCCCCC1)O3)O2`
-63.2
